experiment: in vivo; conditions: cynomolgus monkey

{"compound": "CC(C)(O)c1ncc([S@](N)(=O)=NC(=O)Nc2c3c(cc4c2CCC4)CCC3)s1 [Compound IA]", "value unit": "mg/kg/day", "NOAEL at 13 weeks": 150}

----------
assay: First-in-human study: plasma pharmacokinetics in healthy subjects; assay type: in vivo; conditions: human, plasma, po, single oral doses of suspensions, fasted, across dose levels; read-out: median tmax

{"smiles text": "CC(C)(O)c1ncc([S@](N)(=O)=NC(=O)Nc2c3c(cc4c2CCC4)CCC3)s1", "Tmax": "0.76 to 3 h"}

----------
assay: First-in-human study: plasma pharmacokinetics in healthy subjects; type: in vivo; conditions: human, plasma, po, single oral doses 30-600 mg, fasted; read-out: median tmax

{"smiles text": "CC(C)(O)c1ncc([S@](N)(=O)=NC(=O)Nc2c3c(cc4c2CCC4)CCC3)s1", "Tmax": "1.5 to 3 h"}
